// data source = ChEMBL document CHEMBL3882725

# target system: Mitogen-activated protein kinase 9 (Homo sapiens, UniProt P45984)
# Sequence (P45984 whole entry, the tested form may be a part): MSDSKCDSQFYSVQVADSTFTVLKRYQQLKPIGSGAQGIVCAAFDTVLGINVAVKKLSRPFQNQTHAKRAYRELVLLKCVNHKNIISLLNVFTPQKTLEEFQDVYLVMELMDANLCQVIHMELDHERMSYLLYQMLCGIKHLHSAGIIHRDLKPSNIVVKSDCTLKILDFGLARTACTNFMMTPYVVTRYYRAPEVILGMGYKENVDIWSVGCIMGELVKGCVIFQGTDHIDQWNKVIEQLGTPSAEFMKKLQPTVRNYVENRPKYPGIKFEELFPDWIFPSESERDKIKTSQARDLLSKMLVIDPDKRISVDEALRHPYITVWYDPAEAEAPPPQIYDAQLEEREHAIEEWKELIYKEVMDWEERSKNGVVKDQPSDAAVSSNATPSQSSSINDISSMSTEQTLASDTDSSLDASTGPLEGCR
# experimental protocol: Inhibition of His6-tagged JNK2 (unknown origin) assessed as reduction in c-Jun phosphorylation using GST-c-Jun (1 to 79 residues) and [gamma32P]ATP incubated for 1 hr by scintillation counting assay
Measured IC50 values are reported for all entries that follow.

{"compound": "O=c1[nH]c(-c2ccc3[nH]nc(-c4ccc(F)cc4)c3c2)no1", "recorded metric": "IC50", "result": "0.5 to 10 µM"}

Now consider the entry below.
Field IC50 (entry Fc1ccc(-c2n[nH]c3ccc(-c4n[nH]c(C5CCCN5)n4)cc23)cc1 (stereo unspecified) ) reads 0.5 to 10 µM

###

# target system: Mitogen-activated protein kinase 9 (Homo sapiens)
# experimental protocol: Inhibition of His6-tagged JNK2 (unknown origin) assessed as reduction in c-Jun phosphorylation using GST-c-Jun (1 to 79 residues) and [gamma32P]ATP incubated for 1 hr by scintillation counting assay
pIC50: −log10 of the molar value.
Reported pIC50 values are given for each entry in this list.

{"compound": "O=C(Nc1ccc2[nH]nc(-c3ccccc3)c2c1)c1ccccc1", "target system": "Mitogen-activated protein kinase 9 (Homo sapiens)", "pIC50": "5.00 to 6.00"}
{"compound": "Fc1ccc(-c2n[nH]c3ccc(-c4n[nH]c(CN5CCCC5)n4)cc23)cc1", "target system": "Mitogen-activated protein kinase 9 (Homo sapiens)", "pIC50": "5.00 to 6.30"}
{"compound": "FC(F)(F)c1ccc(-c2n[nH]c3ccc(-c4ncn[nH]4)cc23)cc1", "target system": "Mitogen-activated protein kinase 9 (Homo sapiens)", "pIC50": "5.00 to 6.00"}
{"compound": "c1ccc2cc(-c3n[nH]c4ccc(-c5ncn[nH]5)cc34)ccc2c1", "target system": "Mitogen-activated protein kinase 9 (Homo sapiens)", "pIC50": "5.00 to 6.00"}

Form field pIC50, entry CC(O)Cc1nnc(-c2ccc3[nH]nc(-c4ccc(F)cc4)c3c2)[nH]1 (stereo in doubt; form 2) : 5.00 to 6.00

Measured pIC50 of "NC(=O)c1ccc2[nH]nc(-c3ccc4ccccc4c3)c2c1" : 5.00 to 6.00

According to the records, this compound "NC(=O)c1ccc2[nH]nc(-c3cccc(OCCN4CCCCC4)c3)c2c1" displays pIC50 of 5.00 to 6.00

The recorded pIC50 for entry CC(O)Cc1nnc(-c2ccc3[nH]nc(-c4ccc(F)cc4)c3c2)[nH]1 (stereo in doubt; form 1) equals 5.00 to 6.30

The compound listed as "O=[N+]([O-])c1ccc2[nH]nc(-c3cccc(C(F)(F)F)c3)c2c1" shows pIC50 equal to ≥ 5.00

Entry under test: CC(Oc1ccccc1)C(=O)Nc1cccc(-c2n[nH]c3ccc(-c4nn[nH]n4)cc23)c1 (centres undefined) . Its pIC50 was 5.00 to 6.30

Sample "O=[N+]([O-])c1ccc2[nH]nc(-c3ccccc3)c2c1" ; pIC50 observed: ≥ 5.00

Looking up "Nc1cccc(C(=O)Nc2ccc3[nH]nc(-c4ccccc4)c3c2)c1" , I see its pIC50 listed as 5.00 to 6.00

###

# target system: Mitogen-activated protein kinase 9 (Homo sapiens)
# experimental protocol: Inhibition of His6-tagged JNK2 (unknown origin) assessed as reduction in c-Jun phosphorylation using GST-c-Jun (1 to 79 residues) and [gamma32P]ATP incubated for 1 hr by scintillation counting assay
# IC50 listing for each entry below

{"record smiles": "O=C(O)CNC(=O)c1ccc2[nH]nc(-c3ccc(F)cc3)c2c1", "IC50": "1 to 10 µM"}
{"record smiles": "CN(C)CCc1nc(-c2ccc3[nH]nc(-c4ccc(F)cc4)c3c2)n[nH]1", "IC50": "1 to 10 µM"}

Recorded result, "O=C(CN1CCOCC1)Nc1cccc(-c2n[nH]c3ccc(-c4nc[nH]n4)cc23)c1" , IC50: 0.5 to 10 µM

Kindly note the recorded IC50 for "CN(C)Cc1n[nH]c(-c2ccc3[nH]nc(-c4cccc(C(=O)NC5CCC5)c4)c3c2)n1" , which is 0.5 to 10 µM

###

# target system: Mitogen-activated protein kinase 9 (Homo sapiens, UniProt P45984)
# experimental protocol: Inhibition of His6-tagged JNK2 (unknown origin) assessed as reduction in c-Jun phosphorylation using GST-c-Jun (1 to 79 residues) and [gamma32P]ATP incubated for 1 hr by scintillation counting assay
recorded metric: IC50

Worked cases, answers included:
{"compound": "CN(C)Cc1n[nH]c(-c2ccc3[nH]nc(-c4cccc(C(=O)Nc5ccccc5)c4)c3c2)n1", "IC50": "0.5 to 10 µM"}
{"compound": "O=C(NCCc1ccccc1)c1cccc(-c2n[nH]c3ccc(-c4nc[nH]n4)cc23)c1", "IC50": "0.5 to 10 µM"}
{"compound": "Cc1ccccc1C(=O)Nc1ccc2[nH]nc(-c3ccc(F)cc3)c2c1", "IC50": "1 to 10 µM"}
{"compound": "CN(C)c1ccc(CC(=O)Nc2cccc(-c3n[nH]c4ccc(C(N)=O)cc34)c2)cc1", "IC50": "1 to 10 µM"}
{"compound": "c1cc(OCCN2CCNCC2)cc(-c2n[nH]c3ccc(-c4ncn[nH]4)cc23)c1", "IC50": "1 to 10 µM"}
{"compound": "CCN(CC)Cc1nc(-c2ccc3[nH]nc(-c4ccc(F)cc4)c3c2)n[nH]1", "IC50": "1 to 10 µM"}

The measured IC50 associated with "O=C(NO)c1ccc2[nH]nc(-c3ccc(F)cc3)c2c1" reads 1 to 10 µM

Value of IC50 reported for the compound "Nc1nnc(-c2ccc3[nH]nc(-c4ccc(F)cc4)c3c2)[nH]1" is 1 to 10 µM

IC50 recorded for this compound, "C(#Cc1n[nH]c2ccc(-c3nnn[nH]3)cc12)c1ccccc1" , is 1 to 10 µM

###

# target system: Mitogen-activated protein kinase 9 (Homo sapiens, UniProt P45984)
# experimental protocol: Inhibition of His6-tagged JNK2 (unknown origin) assessed as reduction in c-Jun phosphorylation using GST-c-Jun (1 to 79 residues) and [gamma32P]ATP incubated for 1 hr by scintillation counting assay
recorded metric: IC50

The examples below pair each entry with its known result.
{"molecule": "O=C(Nc1ccc2[nH]nc(-c3ccc(F)cc3)c2c1)N1CCOCC1", "target system": "Mitogen-activated protein kinase 9 (Homo sapiens, UniProt P45984)", "result": "≤ 10 µM"}
{"molecule": "Clc1ccc(/C=C/c2n[nH]c3ccc(-c4nc[nH]n4)cc23)cc1", "target system": "Mitogen-activated protein kinase 9 (Homo sapiens, UniProt P45984)", "result": "1 to 10 µM"}

Lab note: measured IC50 of "Fc1ccc(-c2n[nH]c3ccc(NCc4cccnc4)cc23)cc1" was ≤ 10 µM

Entry "O=C(Nc1ccc(-c2n[nH]c3ccc(-c4ncn[nH]4)cc23)cc1)c1ccco1" , IC50 reported as 1 to 10 µM

// IC50 lookup, molecule = "O=C(NCCN1CCOCC1)c1cccc(-c2n[nH]c3ccc(-c4nc[nH]n4)cc23)c1" , result: 0.5 to 10 µM

Noted for "C[C@H](O)C(=O)Nc1cccc(-c2n[nH]c3ccc(-c4nn[nH]n4)cc23)c1" : its IC50 reads 0.5 to 10 µM

###

# target system: Mitogen-activated protein kinase 9 (Homo sapiens)
# experimental protocol: Inhibition of His6-tagged JNK2 (unknown origin) assessed as reduction in c-Jun phosphorylation using GST-c-Jun (1 to 79 residues) and [gamma32P]ATP incubated for 1 hr by scintillation counting assay
recorded metric: IC50

{"record smiles": "NC(=O)CCCNC(=O)c1ccc2[nH]nc(-c3ccc(F)cc3)c2c1", "IC50": "1 to 10 µM"}

// sample "COC(=O)c1cccc(C(=O)Nc2ccc3[nH]nc(-c4ccc(F)cc4)c3c2)c1" , its IC50 was ≤ 10 µM

Sample "CC(C)CNC(=O)c1ccc2[nH]nc(-c3cc4ccccc4o3)c2c1" ; IC50 observed: 1 to 10 µM

###

# target system: Mitogen-activated protein kinase 9 (Homo sapiens)
# experimental protocol: Inhibition of His6-tagged JNK2 (unknown origin) assessed as reduction in c-Jun phosphorylation using GST-c-Jun (1 to 79 residues) and [gamma32P]ATP incubated for 1 hr by scintillation counting assay
recorded metric: IC50

Worked cases, answers included:
{"record smiles": "CN(C)c1ccc(-c2n[nH]c3ccc(-c4ncn[nH]4)cc23)cc1", "result": "1 to 10 µM"}
{"record smiles": "O=C(NCC1CC1)c1cccc(-c2n[nH]c3ccc(-c4ncn[nH]4)cc23)c1", "result": "0.5 to 10 µM"}
{"record smiles": "O=C(NCCN1CCCCC1)c1cccc(-c2n[nH]c3ccc(-c4nc[nH]n4)cc23)c1", "result": "0.5 to 10 µM"}
{"record smiles": "c1cc(-c2n[nH]c3ccc(-c4nnn[nH]4)cc23)ccc1OCCN1CCOCC1", "result": "0.5 to 10 µM"}
{"record smiles": "O=C(Nc1cccc(-c2n[nH]c3ccc(-c4nc[nH]n4)cc23)c1)C1CC1", "result": "1 to 10 µM"}

Entry "Fc1ccc(-c2n[nH]c3ccc(NCc4ccncc4)cc23)cc1" — recorded IC50 = 1 to 10 µM

The reported value for "O=C(NC1CCN(Cc2ccccc2)CC1)c1cccc(-c2n[nH]c3ccc(-c4nc[nH]n4)cc23)c1" in terms of IC50 is 0.5 to 10 µM

# IC50 (compound: "Fc1ccc(-c2n[nH]c3ccc(-c4nnc(Cc5ccccc5)[nH]4)cc23)cc1" ) is 1 to 10 µM

Value of measured IC50 for the entry "CNC(=O)c1ccc(C(=O)Nc2ccc3[nH]nc(-c4ccc(F)cc4)c3c2)cc1" : 1 to 10 µM

get_value(item= "COCC(=O)Nc1ccc(-c2n[nH]c3ccc(-c4nc[nH]n4)cc23)cc1" , readout=IC50) returns 1 to 10 µM

// IC50 lookup, compound = "O=C(NC1CCC1)c1cccc(-c2n[nH]c3ccc(-c4nc[nH]n4)cc23)c1" , result: 0.5 to 10 µM

IC50 reading for "c1cc(-c2n[nH]c3ccc(-c4nnn[nH]4)cc23)ccn1" : 0.5 to 10 µM

Lab note: "O=C(Nc1nnn[nH]1)c1ccc2[nH]nc(-c3ccc(F)cc3)c2c1" gave IC50 of 1 to 10 µM

// "O=C(Nc1cccc(-c2n[nH]c3ccc(-c4nc[nH]n4)cc23)c1)c1cc2ccccc2s1" : IC50 value = 1 to 10 µM

Noted for "c1ccc2sc(-c3n[nH]c4ccc(-c5nn[nH]n5)cc34)cc2c1" : its IC50 reads 0.5 to 10 µM

// sample "O=C(N[C@@H]1CCc2ccccc21)c1cccc(-c2n[nH]c3ccc(-c4ncn[nH]4)cc23)c1" , its IC50 was 0.5 to 10 µM

The recorded IC50 for entry "c1nc(-c2ccc3[nH]nc(-c4ccc5c(c4)OCCO5)c3c2)n[nH]1" equals 1 to 10 µM
